- System: production of PGE2 in human pulmonary adenocarcinoma cell line A549 (mPGES-1)
- test method notes: Inhibition of PGE2 production in IL-1β-stimulated A549 cells (EIA)
- Assay type: cell-based
- condition: IL-1β stimulated, read-out: pIC50 PGE2 (converted)
measured endpoint: IC50 (nM)

CS(=O)(=O)n1c(CCc2ccccc2)cc2cc(NC(=O)c3ccccc3Cl)ccc21 :: 501

P = COc1ccc2c(c1)c(CC(=O)O)c(C)n2C(=O)c1ccc(Cl)cc1 [Indomethacin, indomethacin, reference compound]
Q = O=C(Nc1ccc2c(c1)cc(C(=O)Nc1ccccc1)n2CCCO)c1ccccc1C(F)(F)F
Enquiry: Larger number for IC50: P , or Q ? Please respond with the label that marks your chosen entry.
Return: Q

* * *

- Tested on: production of PGE2 in human pulmonary adenocarcinoma cell line A549 (mPGES-1)
- test method notes: Inhibition of PGE2 production in IL-1β-stimulated A549 cells (EIA)
- Assay type: cell-based
- condition: IL-1β stimulated, read-out: pIC50 PGE2 (converted)
measured endpoint: IC50 (µM)

I = CCn1c(Cc2ccccc2)cc2cc(NC(=O)c3ccccc3Cl)ccc21
II = O=C(Nc1ccc2c(c1)cc(-c1ccc(Cl)cc1)n2CCO)c1ccc(F)cc1C(F)(F)F
III = O=C(Nc1ccc2c(c1)cc(-c1ccc(F)cc1)n2CCO)c1c(Cl)cccc1Cl
IV = CS(=O)(=O)n1c(-c2cccc(C(F)(F)F)c2)cc2cc(NC(=O)c3ccccc3Cl)ccc21
Enquiry: Provide the items ranked by increasing IC50. Your reply should list the labels following the order given in the request.
Return: IV, I, II, III
(IV: 1.58 µM, I: 2.51 µM, II: 6.31 µM, III: 50.1 µM)

* * *

Below, each entry is listed alongside its reported inhibition at 10 µM.
- Tested on: production of PGF2α in human pulmonary adenocarcinoma cell line A549
- test method notes: Inhibition of PGF2α production in IL-1β-stimulated A549 cells (EIA)
- Type: cell-based
- condition: 10 μM, IL-1β 10 ng/ml, 22 hours
Kindly provide the numeric value in % only, without the unit symbol.

CS(=O)(=O)n1c(-c2cccc(C(F)(F)F)c2)cc2cc(NC(=O)c3ccccc3Cl)ccc21 [Compound 22] :: 44

Field inhibition at 10 µM (entry CCn1c(Cc2ccccc2)cc2cc(NC(=O)c3ccccc3Cl)ccc21 [Compound 34] ) reads 44

* * *

- Test system: production of PGF2α in human pulmonary adenocarcinoma cell line A549
- test method notes: Inhibition of PGF2α production in IL-1β-stimulated A549 cells (EIA)
- Assay type: cell-based
- condition: 10 μM, IL-1β 10 ng/ml, 22 hours
measured endpoint: inhibition at 10 µM

Past entries and their recorded results:
CCn1c(CCc2ccccc2)cc2cc(NC(=O)c3ccccc3Cl)ccc21 :: < 20%
CCn1c(-c2ccc(C)cc2)cc2cc(NC(=O)c3ccccc3Cl)cnc21 :: < 20%

Data point: O=C(Nc1ccc2c(c1)cc(-c1ccc(F)cc1)n2CCO)c1c(F)cccc1C(F)(F)F ; inhibition at 10 µM = < 20%
